Values from patent US10590085B2

# ASSAY_TARGET: RIP1 kinase (Homo sapiens, UniProt Q13546)
# Sequence (Q13546 1-375 limits assumed): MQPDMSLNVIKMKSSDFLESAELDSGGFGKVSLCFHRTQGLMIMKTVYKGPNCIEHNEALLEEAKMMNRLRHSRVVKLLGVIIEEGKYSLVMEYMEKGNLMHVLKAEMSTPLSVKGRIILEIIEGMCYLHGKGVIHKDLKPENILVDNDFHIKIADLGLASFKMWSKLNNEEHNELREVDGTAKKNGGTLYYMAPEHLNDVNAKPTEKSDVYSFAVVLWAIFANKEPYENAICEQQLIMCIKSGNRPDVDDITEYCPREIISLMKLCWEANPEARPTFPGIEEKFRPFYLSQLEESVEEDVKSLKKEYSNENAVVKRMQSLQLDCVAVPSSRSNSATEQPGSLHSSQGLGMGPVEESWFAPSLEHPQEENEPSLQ
// values below are reported IC50

Would you please look over these solved cases?
1) O=C(C1CCN(c2ccccn2)CC1)N1N=CC[C@H]1c1cccnc1 [Example 70] : ~0.398 µM
2) Cc1ccc([C@@H]2CC=NN2C(=O)C(C)(C)C)cn1 [Example 50] : ~0.631 µM
3) CC(=O)N1CCC(C(=O)N2N=CCC2c2ccc3c(c2)OCO3)CC1 (stereo not shown) [Example 12] : ~0.501 µM
4) CC(C)(C)C(=O)N1N=CC[C@H]1c1ccc(Cl)c(Cl)c1 [Example 40] : ~0.0501 µM
5) CC(C)(C)C(=O)N1N=CC[C@H]1c1cccc2[nH]ccc12 [Example 93] : ~0.1 µM
6) CC(=O)N1CCC(C(=O)N2N=CC[C@H]2c2cc(F)cc(F)c2)CC1 [Example 203] : ~0.0316 µM
7) Cc1ccc(C(=O)N2N=CCC2c2ccccc2)cc1 (stereo not shown) [Example 17] : ~0.126 µM
8) CC(C)(C)C(=O)N1N=CC[C@H]1c1ccc(C(F)(F)F)cc1 [Example 62] : ~0.0794 µM

IC50 on RIP1 kinase (Homo sapiens, UniProt Q13546) for CC(C)(C)C(=O)N1N=CC[C@H]1c1cncc(F)c1 [Example 15] is ~0.0794 µM

IC50 on RIP1 kinase (Homo sapiens, UniProt Q13546) for O=C(C1CCN(c2ncc(F)cn2)CC1)N1N=CC[C@H]1c1ccccc1 [Example 7] is 0.001 to 0.01 µM

----------
# System: mouse L929 fibrosarcoma cells
# PROCEDURE_TEXT: necroptosis assay in L929 cells
# Format: cell-based
# CONDITIONS: viability by cellular ATP (Cell Titer-Glo), read-out: mean pIC50, inhibition of necrosis in L929 cells (converted)
Counter-ions that a name gives are not always drawn.
OBSERVED_PROPERTY: IC50

Would you please look over these solved cases?
1) CC(C)(C)C(=O)N1N=CC[C@H]1c1ccccn1 : ~200 nM
2) CC(C)(C)C(=O)N1N=CC[C@H]1c1ccccc1 : ~5.01 nM

IC50 on mouse L929 fibrosarcoma cells for `Cc1ccc([C@@H]2CC=NN2C(=O)C(C)(C)C)cn1` is ~20 nM

IC50 on mouse L929 fibrosarcoma cells for `CC(C)(C)C(=O)N1N=CC[C@H]1c1cccc2[nH]ccc12` is ~79.4 nM

IC50 on mouse L929 fibrosarcoma cells for CC(C)(C)C(=O)N1N=CC[C@H]1c1cccc(F)c1 [Example 68, trifluoroacetate] is ~5.01 nM

IC50 on mouse L929 fibrosarcoma cells for `CC(C)(C)C(=O)N1N=CC[C@H]1c1ccc(Cl)cc1` is ~0.00158 nM

IC50 on mouse L929 fibrosarcoma cells for `CC(C)(C)C(=O)N1N=CC[C@H]1c1cccc(Cl)c1` is ~39.8 nM

IC50 on mouse L929 fibrosarcoma cells for `CC(C)(C)C(=O)N1N=CC[C@H]1c1ccc2[nH]ccc2c1` is ~251 nM
